The values you see were collected from patent US20240336574A1.

Below: a set of entries, each annotated with reported IC50.
Target: recombinant human NaV1.8 stably transfected HEK cells (Homo sapiens)
Construct: expressed in transfected cells; host or cells: HEK cells, stably transfected
Assay: Compound profiling on NaV1.8, human NaV1.8 cell line, SyncroPatch384PE automated patch clamp assay (Example 102, first set of compounds, Table 16)
Assay type: cell-based
Details: inactivated state block (P2 measurement), human NaV1.8 HEK cells, Table 16 (first set of compounds), read-out: P2IC50

- compound: "CSc1cccc(NC(=O)c2cc(C#N)cnc2Oc2ccc(F)cc2C)c1"
  IC50: "200 to 500 nM"
- compound: "Cc1c(C(F)(F)F)nnc(Oc2ccc(OC3CCC3)c(F)c2F)c1C(=O)Nc1cccc(S(C)(=N)=O)c1 (single isomer, unassigned) [Compound 1494]"
  IC50: "20 to 40 nM"
- compound: "COc1c(Oc2ncc(C(F)(F)F)cc2C(=O)Nc2cccc(C(N)=O)c2)ccc(F)c1F"
  IC50: "≤ 20 nM"
- compound: "COc1cc(C#N)ccc1Oc1ncc(C(F)(F)F)cc1C(=O)NC12CC(C(N)=O)(C1)C2"
  IC50: "200 to 500 nM"

GET IC50 where system = recombinant human NaV1.8 stably transfected HEK cells (Homo sapiens) and item = "Cc1nc(OC2CCC2)ccc1Oc1ncc(C(F)(F)F)cc1C(=O)Nc1cccc(C(N)=O)c1"
200 to 500 nM

Please tell me the measured IC50 for CC(C#N)Oc1cc(F)c(Oc2ncc(C(F)(F)F)cc2C(=O)Nc2cccc(S(C)(=N)=O)c2)cc1F (centres unmarked) ; system: recombinant human NaV1.8 stably transfected HEK cells (Homo sapiens).
40 to 200 nM

Give IC50 only, for "CC(C)Oc1ccc(Oc2ncc(C(F)(F)F)cc2C(=O)Nc2ccc(-c3ncc[nH]3)cc2)c(F)c1F" , using recombinant human NaV1.8 stably transfected HEK cells (Homo sapiens) data.
200 to 500 nM

Find IC50 for "CS(=O)(=O)c1cccc(NC(=O)c2cc(C(F)(F)F)cnc2Oc2cccc(OC(F)(F)F)c2)c1" on recombinant human NaV1.8 stably transfected HEK cells (Homo sapiens) and write it down.
200 to 500 nM

Enter measured IC50, system recombinant human NaV1.8 stably transfected HEK cells (Homo sapiens), for the compound shown: "Cc1cc(F)ccc1Oc1nnc(C(F)(F)F)c(C)c1C(=O)Nc1cccc(C(N)=O)c1"
40 to 200 nM

Tell me IC50 of COc1cc(C#N)ccc1Oc1nnc(-c2cnc(C)s2)c(C)c1C(=O)Nc1cccc(S(C)(=N)=O)c1 (centres unmarked) when tested on recombinant human NaV1.8 stably transfected HEK cells (Homo sapiens).
200 to 500 nM

====

Target: recombinant human NaV1.8 stably transfected HEK cells (Homo sapiens, UniProt Q9Y5Y9)
Construct: expressed in transfected cells; host or cells: HEK cells, stably transfected
Sequence (Q9Y5Y9 whole entry): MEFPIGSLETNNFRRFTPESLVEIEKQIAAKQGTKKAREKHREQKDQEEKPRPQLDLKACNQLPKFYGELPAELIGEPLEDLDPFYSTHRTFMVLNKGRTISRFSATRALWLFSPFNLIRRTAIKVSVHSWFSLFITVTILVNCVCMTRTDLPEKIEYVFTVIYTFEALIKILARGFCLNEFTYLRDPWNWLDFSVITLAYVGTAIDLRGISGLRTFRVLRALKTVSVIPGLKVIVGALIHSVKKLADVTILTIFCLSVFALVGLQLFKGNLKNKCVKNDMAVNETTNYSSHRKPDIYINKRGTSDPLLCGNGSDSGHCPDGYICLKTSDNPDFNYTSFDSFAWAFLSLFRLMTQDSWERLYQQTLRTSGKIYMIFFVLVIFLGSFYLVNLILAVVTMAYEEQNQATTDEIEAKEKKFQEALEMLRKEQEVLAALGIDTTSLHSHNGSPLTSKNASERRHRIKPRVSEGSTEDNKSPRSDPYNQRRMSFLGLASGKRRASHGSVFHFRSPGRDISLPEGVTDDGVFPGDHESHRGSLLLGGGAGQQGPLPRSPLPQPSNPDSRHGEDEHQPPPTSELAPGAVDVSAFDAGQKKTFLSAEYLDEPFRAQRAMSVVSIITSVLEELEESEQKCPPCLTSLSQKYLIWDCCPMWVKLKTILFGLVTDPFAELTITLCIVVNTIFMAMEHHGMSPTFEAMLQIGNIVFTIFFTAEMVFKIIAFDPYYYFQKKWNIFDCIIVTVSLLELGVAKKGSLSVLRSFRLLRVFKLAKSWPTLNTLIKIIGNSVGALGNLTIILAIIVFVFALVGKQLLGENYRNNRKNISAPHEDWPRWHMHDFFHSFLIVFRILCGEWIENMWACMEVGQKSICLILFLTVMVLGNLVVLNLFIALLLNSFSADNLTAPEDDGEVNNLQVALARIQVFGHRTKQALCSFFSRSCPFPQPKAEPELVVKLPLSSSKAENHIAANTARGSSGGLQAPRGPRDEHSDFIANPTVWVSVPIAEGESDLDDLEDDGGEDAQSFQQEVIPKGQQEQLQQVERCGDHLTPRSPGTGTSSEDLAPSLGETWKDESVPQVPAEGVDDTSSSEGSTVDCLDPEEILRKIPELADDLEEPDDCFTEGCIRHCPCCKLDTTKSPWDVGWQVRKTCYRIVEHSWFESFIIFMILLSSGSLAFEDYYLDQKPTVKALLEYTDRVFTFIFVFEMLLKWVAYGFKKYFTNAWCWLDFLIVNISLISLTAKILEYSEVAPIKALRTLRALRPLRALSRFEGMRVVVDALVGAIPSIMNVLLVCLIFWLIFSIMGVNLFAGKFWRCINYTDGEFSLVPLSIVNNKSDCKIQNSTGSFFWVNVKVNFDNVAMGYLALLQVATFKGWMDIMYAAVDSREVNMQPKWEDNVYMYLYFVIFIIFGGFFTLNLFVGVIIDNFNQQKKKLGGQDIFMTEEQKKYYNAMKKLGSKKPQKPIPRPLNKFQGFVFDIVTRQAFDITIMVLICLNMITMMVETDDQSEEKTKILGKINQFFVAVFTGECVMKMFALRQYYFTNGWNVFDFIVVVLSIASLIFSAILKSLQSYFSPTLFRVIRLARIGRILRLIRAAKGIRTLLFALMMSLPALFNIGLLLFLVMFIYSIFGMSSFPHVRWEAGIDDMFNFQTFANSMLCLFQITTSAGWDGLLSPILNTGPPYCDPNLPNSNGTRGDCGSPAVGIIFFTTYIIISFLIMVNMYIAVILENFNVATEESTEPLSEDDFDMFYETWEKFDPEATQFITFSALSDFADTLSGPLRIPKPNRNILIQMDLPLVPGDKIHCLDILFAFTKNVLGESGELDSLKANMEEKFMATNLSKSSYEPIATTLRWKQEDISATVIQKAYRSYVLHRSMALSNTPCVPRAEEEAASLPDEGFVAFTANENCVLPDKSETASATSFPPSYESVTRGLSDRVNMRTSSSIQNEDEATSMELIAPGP
Assay: Compound profiling on NaV1.8, human NaV1.8 cell line, SyncroPatch384PE automated patch clamp assay (Example 115, third set of compounds, Table 27)
Type: cell-based
Details: inactivated state block (P2 measurement), human NaV1.8 HEK cells, Table 27 (third set of compounds), read-out: P2 IC50
pIC50: −log10 of the molar value.
Reported pIC50 values for a set of molecules

Here is how some molecules turned out for pIC50.
- structure.string: "COc1cc(F)ccc1Oc1nnc(C(F)(F)F)cc1C(=O)Nc1ccc(C)c(S(C)(=O)=O)c1"
  quantity: "pIC50"
  result: "≥ 6.70"
- structure.string: "COc1cc(F)ccc1Oc1nnc(C(F)(F)F)cc1C(=O)Nc1ccc(C(N)=O)nc1"
  quantity: "pIC50"
  result: "6.30 to 6.70"
- structure.string: "COc1cc(F)ccc1Oc1nnc(C(F)(F)F)cc1C(=O)Nc1cncc(S(C)(=O)=O)c1"
  quantity: "pIC50"
  result: "5.30 to 6.00"

Give reported pIC50 value for "COc1cc(F)ccc1Oc1nnc(C(F)(F)F)cc1C(=O)N[C@H]1CCCN(S(C)(=O)=O)C1"
6.00 to 6.30

For the molecule "Cc1cc(C#N)ccc1Oc1nnc(C(F)(F)F)cc1C(=O)Nc1cccc(S(N)(=O)=O)c1" , give its reported pIC50.
≥ 6.70

Find the measured pIC50 of "Cc1cc(F)ccc1Oc1nnc(C(F)(F)F)cc1C(=O)Nc1ccc(S(C)(=O)=O)cc1" and report it.
< 5.30

Look up and report measured pIC50 for this entry: "Cc1cc(F)ccc1Oc1nnc(C(F)(F)F)cc1C(=O)Nc1cccc(-c2cc[nH]n2)c1"
< 5.30

Please indicate pIC50 recorded for "COc1cc(F)ccc1Oc1nnc(C(F)(F)F)cc1C(=O)Nc1cnnc(C#N)c1"
5.30 to 6.00
